target: Acetylcholinesterase (Homo sapiens); assay: Mixed-type inhibition of human recombinant AChE expressed in HEK293 cells using acetylthiocholine iodide as substrate preincubated for 30 mins followed by substrate addition measured after 30 mins by Lineweaver-Burk plot analysis
reportedProperty: pKi
Quick note: pKi means taking -log10 of the concentration in moles per liter.

[ask] Any idea what pKi was measured for C#CCN(Cc1ccc2cccc(O)c2n1)C(C#N)CCC1CCN(Cc2ccccc2)CC1 (stereo unspecified) ?
[reply] 7.83

* * *

Biological target: Amine oxidase [flavin-containing] A (Homo sapiens)
Sequence (P21397 whole entry): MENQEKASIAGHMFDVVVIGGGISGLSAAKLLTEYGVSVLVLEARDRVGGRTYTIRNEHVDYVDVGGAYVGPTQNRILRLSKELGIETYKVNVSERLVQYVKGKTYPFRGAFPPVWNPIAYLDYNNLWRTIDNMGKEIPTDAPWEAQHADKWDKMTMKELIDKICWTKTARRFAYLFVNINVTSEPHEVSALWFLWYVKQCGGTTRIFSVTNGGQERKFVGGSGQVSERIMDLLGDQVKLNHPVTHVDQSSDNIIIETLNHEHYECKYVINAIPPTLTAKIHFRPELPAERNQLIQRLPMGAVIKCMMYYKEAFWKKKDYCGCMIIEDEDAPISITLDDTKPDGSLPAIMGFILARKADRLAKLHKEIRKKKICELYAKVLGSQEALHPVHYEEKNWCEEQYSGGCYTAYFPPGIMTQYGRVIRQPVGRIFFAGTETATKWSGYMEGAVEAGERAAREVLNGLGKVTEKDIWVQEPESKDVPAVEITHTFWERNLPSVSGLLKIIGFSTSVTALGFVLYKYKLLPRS
Experiment: Inhibition of human recombinant MAOA using p-tyramine as substrate preincubated for 180 mins followed by substrate addition measured for 1 hr by horse-radish peroxidase/amplex red-based fluorometric method
reportedProperty: pIC50
Quick note: pIC50 means taking -log10 of the concentration in moles per liter.

[ask] Request - read-out pIC50 | tested on Amine oxidase [flavin-containing] A (Homo sapiens) | compound C#CCN(Cc1ccc2cccc(O)c2n1)C(C#N)CCC1CCN(Cc2ccccc2)CC1 (stereo unspecified)
[reply] 5.80

* * *

molecular target: Cholinesterase (Homo sapiens, UniProt P06276); test: Inhibition of human recombinant BuChE expressed in HEK293 cells using S-butyrylthiocholine iodide as substrate preincubated for 30 mins followed by substrate addition measured after 30 mins by Ellman's method
Sequence (P06276 whole entry): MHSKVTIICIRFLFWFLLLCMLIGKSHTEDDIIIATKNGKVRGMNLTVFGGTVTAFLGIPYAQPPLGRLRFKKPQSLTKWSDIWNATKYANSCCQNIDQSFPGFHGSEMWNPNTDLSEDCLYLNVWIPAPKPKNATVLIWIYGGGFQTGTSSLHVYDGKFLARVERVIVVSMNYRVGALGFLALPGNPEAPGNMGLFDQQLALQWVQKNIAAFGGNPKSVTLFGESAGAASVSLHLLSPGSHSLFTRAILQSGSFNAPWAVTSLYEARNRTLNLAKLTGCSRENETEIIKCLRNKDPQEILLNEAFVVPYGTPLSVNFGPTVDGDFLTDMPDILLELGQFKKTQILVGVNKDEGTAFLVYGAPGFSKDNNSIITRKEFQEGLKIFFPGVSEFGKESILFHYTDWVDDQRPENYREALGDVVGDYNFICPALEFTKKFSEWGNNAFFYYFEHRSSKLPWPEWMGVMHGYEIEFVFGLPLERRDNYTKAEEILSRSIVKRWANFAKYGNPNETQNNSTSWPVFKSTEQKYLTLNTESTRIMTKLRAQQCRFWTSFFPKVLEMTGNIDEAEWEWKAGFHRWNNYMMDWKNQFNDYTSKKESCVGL
reportedProperty: pKi
Quick note: pKi means taking -log10 of the concentration in moles per liter.

[ask] Any idea what pKi was measured for C#CCN(Cc1ccc2cccc(O)c2n1)C(C#N)CCC1CCN(Cc2ccccc2)CC1 (stereo unspecified) ?
[reply] 7.28

* * *

target: Acetylcholinesterase (Homo sapiens, UniProt P22303); assay: Inhibition of human recombinant AChE expressed in HEK293 cells using acetylthiocholine iodide as substrate preincubated for 30 mins followed by substrate addition measured after 30 mins by Ellman's method
Sequence (P22303 whole entry): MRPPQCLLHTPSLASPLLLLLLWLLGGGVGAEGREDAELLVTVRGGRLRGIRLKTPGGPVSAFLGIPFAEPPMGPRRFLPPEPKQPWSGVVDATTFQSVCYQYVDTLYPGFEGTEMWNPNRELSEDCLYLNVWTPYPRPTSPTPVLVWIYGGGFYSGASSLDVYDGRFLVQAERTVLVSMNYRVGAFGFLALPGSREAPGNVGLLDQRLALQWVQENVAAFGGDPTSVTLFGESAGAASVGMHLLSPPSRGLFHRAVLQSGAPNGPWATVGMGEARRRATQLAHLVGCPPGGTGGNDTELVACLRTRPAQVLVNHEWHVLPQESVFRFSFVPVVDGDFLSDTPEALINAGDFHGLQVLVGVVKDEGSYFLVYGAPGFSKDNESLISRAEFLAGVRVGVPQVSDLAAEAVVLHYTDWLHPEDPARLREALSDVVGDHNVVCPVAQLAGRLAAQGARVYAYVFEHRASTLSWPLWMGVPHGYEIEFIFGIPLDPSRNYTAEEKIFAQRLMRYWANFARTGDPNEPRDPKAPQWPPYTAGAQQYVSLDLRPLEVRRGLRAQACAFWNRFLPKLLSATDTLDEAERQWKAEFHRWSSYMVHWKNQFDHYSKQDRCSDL
Mark y for IC50 under 3 µM, n if at or over.

Past entries and their recorded results:
1. C#CCN(Cc1ccc2cccc(O)c2n1)C(C#N)CCC1CCN(Cc2ccccc2)CC1 (centres undefined) = y
2. C#CCN(C)CCCOc1ccc(Cl)cc1Cl [CLORGILINE] = n
3. C#CCN(Cc1ccc2cccc(O)c2n1)C(C#N)CC1CCN(Cc2ccccc2)CC1 (centres undefined) = n
4. C#CCN(Cc1ccc2cccc(O)c2n1)C(C#N)C1CCN(Cc2ccccc2)CC1 (centres undefined) = n
5. C#CCN(CCC1CCN(Cc2ccccc2)CC1)Cc1ccc2cccc(O)c2n1 = n
6. C#CCN(C)[C@H](C)Cc1ccccc1 [SELEGILINE] = n
7. C#CCN(Cc1ccc(O)c2ncccc12)C(C#N)CCC1CCN(Cc2ccccc2)CC1 (centres undefined) = y
8. C#CCN(Cc1ccc2cccc(O)c2n1)CC1CCN(Cc2ccccc2)CC1 = n

[ask] Does the reported IC50 of the following molecule sit strictly below 3 µM? C#CCN(CCCC1CCN(Cc2ccccc2)CC1)Cc1ccc2cccc(O)c2n1
[reply] y
